// provenance: ChEMBL document CHEMBL3886313

- target system: Endothelial lipase (Homo sapiens, UniProt Q9Y5X9)
- Sequence (Q9Y5X9 whole entry): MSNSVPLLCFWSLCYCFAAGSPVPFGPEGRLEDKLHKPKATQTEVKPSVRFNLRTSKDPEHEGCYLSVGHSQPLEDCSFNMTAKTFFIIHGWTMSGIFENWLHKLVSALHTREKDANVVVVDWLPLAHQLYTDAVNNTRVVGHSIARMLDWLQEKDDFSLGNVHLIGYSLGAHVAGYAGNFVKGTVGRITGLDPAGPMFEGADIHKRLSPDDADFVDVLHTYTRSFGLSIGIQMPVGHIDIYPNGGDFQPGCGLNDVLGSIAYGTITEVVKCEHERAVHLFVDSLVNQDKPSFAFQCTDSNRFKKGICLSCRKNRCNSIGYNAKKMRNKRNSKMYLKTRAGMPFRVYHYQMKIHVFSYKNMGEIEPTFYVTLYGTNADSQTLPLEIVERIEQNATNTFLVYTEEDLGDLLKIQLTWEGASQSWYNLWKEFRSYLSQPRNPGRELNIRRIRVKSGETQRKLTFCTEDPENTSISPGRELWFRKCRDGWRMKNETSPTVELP
- test details: Enzymatic Assay: The enzymatic assay was measured using white, opaque 96-well half area plates. Each well contained 60 μL of assay buffer (50 mM HEPES pH 8.0, 50 mM NaCl and 1 mM CaCl2) and 2 ul of a DMSO solution containing compound of interest. Conditioned media obtained from HT-1080 cells, which were transformed by RAGE technology (Athersys) to overexpress endogenous EL, was added and the reaction was allowed to incubate for 20 min at 37° C. with gentle agitation. The reaction was started by the addition of 20 μL of a 1:4 dilution of vesicles. The final total reaction volume was 100 μL. The reaction rates were measured on a Gemini plate reader with an excitation wavelength of 488 nm and an emission of 530 nm. Readings were taken every 20 seconds for 10 min with agitation between each reading.
quantity: IC50 (nM)

smiles	u	observed
CC(C)(C)CN1CC(c2nnc(C(=O)c3nc4ccc(-c5ccc(F)cc5)cc4s3)o2)C1	nM	4.8
COc1nc(-c2nnc(C(=O)c3nc4ccc(-c5ccc(F)cc5)cc4s3)o2)c(OCc2ccccc2)c(=O)[nH]1	nM	122

(a) C[C@H](NC(=O)OC(C)(C)C)c1nnc(C(=O)c2nc3ccc(-c4ccccc4)cc3s2)o1
(b) CC(C)(C)CN1CC(c2nnc(C(=O)c3nc4c(F)cc(-c5ccccc5)cc4s3)o2)C1
Query: Identify the entry with the larger IC50. Options: a and b State your choice using its label.
Result: a
(a: 66 nM, b: 18 nM)

###

- target system: Endothelial lipase (Homo sapiens, UniProt Q9Y5X9)
- test details: Enzymatic Assay: The enzymatic assay was measured using white, opaque 96-well half area plates. Each well contained 60 μL of assay buffer (50 mM HEPES pH 8.0, 50 mM NaCl and 1 mM CaCl2) and 2 ul of a DMSO solution containing compound of interest. Conditioned media obtained from HT-1080 cells, which were transformed by RAGE technology (Athersys) to overexpress endogenous EL, was added and the reaction was allowed to incubate for 20 min at 37° C. with gentle agitation. The reaction was started by the addition of 20 μL of a 1:4 dilution of vesicles. The final total reaction volume was 100 μL. The reaction rates were measured on a Gemini plate reader with an excitation wavelength of 488 nm and an emission of 530 nm. Readings were taken every 20 seconds for 10 min with agitation between each reading.
- Format: cell-based
quantity: IC50

Here are 5 molecules together with their reported answers.
molecule	target system	observed
COc1nc(-c2nnc(C(=O)c3nc4ccc(-c5ccccc5)cc4s3)o2)c(OCc2ccccc2)c(=O)[nH]1	Endothelial lipase (Homo sapiens, UniProt Q9Y5X9)	0.076 µM
C[C@@H](NC(=O)OC(C)(C)C)c1nnc(C(=O)c2nc3ccc(-c4ccccc4)cc3s2)o1	Endothelial lipase (Homo sapiens, UniProt Q9Y5X9)	< 0.01 µM
CC1(Cc2nnc(C(=O)c3nc4ccc(-c5ccccc5)cc4s3)o2)NC(=O)N(CC(F)(F)F)C1=O (stereo unspecified)	Endothelial lipase (Homo sapiens, UniProt Q9Y5X9)	< 0.01 µM
O=C1NC(=O)C(Cc2nnc(C(=O)c3nc4ccc(-c5ccccc5)cc4s3)o2)S1 (stereo unspecified)	Endothelial lipase (Homo sapiens, UniProt Q9Y5X9)	< 0.01 µM
NS(=O)(=O)Cc1nnc(C(=O)c2nc3ccc(-c4ccccc4)cc3s2)o1	Endothelial lipase (Homo sapiens, UniProt Q9Y5X9)	< 0.01 µM

Query: Specify IC50 for O=C1NC(=O)C(Cc2nnc(C(=O)c3nc4ccc(-c5ccccc5)cc4s3)o2)N1 (stereo unspecified) and stop.
Result: < 0.01 µM
